Test: Cytotoxicity against human Raji cells assessed as cell viability at 1000 molar ratio by trypan blue assay
Format: cell-based
Settings: read-out: Activity
value type: viability at 1000 molar ratio (%)
Please reply with the bare figure in % and do not write the unit itself.

INSERT INTO measurements (compound_structure, value_type, measurement_unit, value_measured) VALUES
  ('C[C@@]12CCC[C@@](C)(C(=O)O)[C@H]1CC[C@@]13CC(=O)[C@@](CO)(CC[C@H]12)C3', 'viability at 1000 molar ratio', '%', 60),
  ('C[C@@]12CC[C@H]3[C@]4(C)CCC[C@@](C)(C(=O)O)[C@H]4C[C@H](O)[C@]3(CC1=O)C2', 'viability at 1000 molar ratio', '%', 60),
  ('C[C@@]12CCC[C@@](C)(C(=O)O)[C@H]1CC[C@]13CC(=O)[C@](C)(C1)[C@H](O)C[C@H]32', 'viability at 1000 molar ratio', '%', 60);

(Q) What does the data say about its viability at 1000 molar ratio? Entry: "C[C@@]12CC[C@@H]3[C@@](CC1=O)(C2)C(=O)C[C@H]1[C@@]3(C)CCC[C@@]1(C)C(=O)O"
(A) 60

====

System: Raji
Test: Inhibition of 12-O-tetradecanoylphorbol-13-acetate-induced EBV-early antigen activation in human Raji cells assessed as EA activation at 10 molar ratio after 48 hrs relative to TPA
Type: cell-based
Set-up: scale not given: the % may be the effect or the level left
Settings: human gammaherpesvirus 4
# Activity listing for each entry below
Numbers only here, please. The scale is %.

Known Activity results, listed for orientation:
INSERT INTO assay_data (compound_structure, value_type, measurement_unit, value_measured) VALUES
  ('C[C@@]12C[C@H](O)[C@@H]3[C@@](CC[C@H]4[C@@]3(C)CCC[C@@]4(C)C(=O)O)(CC1=O)C2', 'Activity', '%', 91),
  ('C[C@@]12CCC[C@@](C)(C(=O)O)[C@H]1CC[C@]13CC(=O)[C@](C)(C1)[C@H](O)C[C@H]32', 'Activity', '%', 93.2),
  ('C[C@@]12CC[C@H]3[C@]4(C)CCC[C@@](C)(C(=O)O)[C@H]4C[C@H](O)[C@]3(CC1=O)C2', 'Activity', '%', 94.6);

Next, consider the following compound.
(Q) What value of Activity has been recorded for this entry: "C[C@@]12CC[C@@H]3[C@@](CC[C@H]4[C@@]3(C)CCC[C@@]4(C)C(=O)O)(CC1=O)C2"
(A) 98.8

====

Experiment: Cytotoxicity against human Raji cells assessed as cell viability at 1000 molar ratio by trypan blue assay
Type: cell-based
Conditions: read-out: Activity
Let's look at some compounds and their measured viability at 1000 molar ratio.
Returns: string containing the numeric result and its unit.

INSERT INTO measurements (compound, value_measured) VALUES
  ('C[C@@]12C[C@H](O)[C@@H]3[C@@](CC[C@H]4[C@@]3(C)CCC[C@@]4(C)C(=O)O)(CC1=O)C2', '60%'),
  ('C[C@@]12CC[C@@H]3[C@@](CC[C@H]4[C@@]3(C)CCC[C@@]4(C)C(=O)O)(CC1=O)C2', '60%');

(Q) Any idea what its viability at 1000 molar ratio is? The compound is C=C1C[C@@]23CC[C@H]4[C@@](C)(CCC[C@@]4(C)C(=O)O[C@@H]4O[C@H](CO)[C@@H](O)[C@H](O)[C@H]4O)[C@@H]2CC[C@]1(O[C@@H]1O[C@H](CO)[C@@H](O)[C@H](O)[C@H]1O[C@@H]1O[C@H](CO)[C@@H](O)[C@H](O)[C@H]1O)C3 [STEVIOSIDE]
(A) 60%
